These data points were gathered from patent US10450306B2.

Please go through the items and note down their EC50.
- study-target: human FXR (NR1H4) (Homo sapiens)
- Sequence (Q96RI1 1-486): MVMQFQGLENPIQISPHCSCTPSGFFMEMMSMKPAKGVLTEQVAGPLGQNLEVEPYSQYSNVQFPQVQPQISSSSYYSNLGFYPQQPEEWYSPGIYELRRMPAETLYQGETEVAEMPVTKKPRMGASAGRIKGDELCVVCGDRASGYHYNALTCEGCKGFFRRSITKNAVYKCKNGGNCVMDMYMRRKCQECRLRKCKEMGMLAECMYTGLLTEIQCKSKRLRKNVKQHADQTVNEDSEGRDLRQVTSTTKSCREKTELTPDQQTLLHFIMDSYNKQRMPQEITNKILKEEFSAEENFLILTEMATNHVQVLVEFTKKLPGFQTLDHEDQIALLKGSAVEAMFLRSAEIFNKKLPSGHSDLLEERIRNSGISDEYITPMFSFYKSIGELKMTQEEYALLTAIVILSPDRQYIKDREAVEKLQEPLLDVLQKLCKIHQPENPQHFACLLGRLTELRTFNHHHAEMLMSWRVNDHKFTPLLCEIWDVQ
- protocol-details: Human FXR (NR1H4) Assay: Gal4 promoter driven luciferase reporter transactivation in CHO cells (Indigo Bioscience kit IB00601)
- reported-conditions: Human FXR (NR1H4) reporter assay, potency ranges

What measured EC50 goes with O=C(O)c1ccc2nc(N3[C@@H]4CC[C@H]3C[C@H](NCc3c(-c5c(Cl)cccc5Cl)noc3C3CC3)C4)sc2c1 ?
> 1000 nM

What measured EC50 goes with COC(=O)c1ccc2nc(N3C4CCC3CC(NCc3c(-c5c(Cl)cccc5Cl)noc3C3CC3)C4)cnc2c1 (stereo not shown) ?
1 to 100 nM

What measured EC50 goes with CC(C)(C)CS(=O)(=O)NC(=O)c1ccc2nc(N3C4CCC3CC(NCc3c(-c5c(Cl)cccc5Cl)noc3C3CC3)C4)sc2c1 (stereo not shown) ?
1 to 100 nM

What measured EC50 goes with O=C(O)c1cc(C2CC2)c2nc(N3C4CCC3CC(NCc3c(-c5ccccc5C(F)(F)F)noc3C3CC3)C4)sc2c1 (stereo not shown) ?
< 1 nM

What measured EC50 goes with O=C(O)c1cc2sc(N3C4CCC3CC(NCc3c(-c5c(Cl)cccc5Cl)noc3C3CC3)C4)nc2cc1-c1ccccc1 (stereo not shown) ?
1 to 100 nM

What measured EC50 goes with CC(C)S(=O)(=O)NC(=O)c1ccc2nc(N3C4CCC3CC(NCc3c(-c5c(Cl)cccc5Cl)noc3C3CC3)C4)sc2c1 (stereo not shown) ?
1 to 100 nM

What measured EC50 goes with COC(=O)c1ccc2nc(N3C4CCC3CC(NCc3c(-c5c(Cl)cccc5Cl)noc3C3CC3)C4)c(OC)nc2c1 (stereo not shown) ?
100 to 1000 nM

###

Please go through the items and note down their Emax.
- study-target: human FXR (NR1H4) (Homo sapiens)
- Construct: host or cells: CHO (Chinese hamster ovary) reporter cells
- Sequence (Q96RI1 1-486): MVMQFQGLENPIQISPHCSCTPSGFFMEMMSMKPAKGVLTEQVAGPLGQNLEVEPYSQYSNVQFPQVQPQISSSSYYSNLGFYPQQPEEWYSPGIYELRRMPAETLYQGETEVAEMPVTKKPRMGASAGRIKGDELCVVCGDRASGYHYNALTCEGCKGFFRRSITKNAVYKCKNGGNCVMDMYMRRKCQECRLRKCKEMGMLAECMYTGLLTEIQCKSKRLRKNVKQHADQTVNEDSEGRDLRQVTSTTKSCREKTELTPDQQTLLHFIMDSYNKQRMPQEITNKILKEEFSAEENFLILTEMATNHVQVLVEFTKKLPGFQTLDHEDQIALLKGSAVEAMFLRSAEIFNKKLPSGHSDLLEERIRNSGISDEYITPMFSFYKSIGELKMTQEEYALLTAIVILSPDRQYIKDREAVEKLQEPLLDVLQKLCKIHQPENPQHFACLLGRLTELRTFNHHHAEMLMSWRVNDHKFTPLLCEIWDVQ
- protocol-details: Human FXR (NR1H4) Assay: Gal4 promoter driven luciferase reporter transactivation in CHO cells (Indigo Bioscience kit IB00601); on Efficacy (%): efficacy normalized to CDCA set as 100%
- Assay type: cell-based
- reported-conditions: CHO; read-out: Efficacy (%)
Give your result in % as a bare value.

What measured Emax goes with O=C(O)c1ccc(N2C3CCC2CC(NCc2c(-c4ccccc4OC(F)(F)F)noc2C2CC2)C3)nc1 (stereo not shown) ?
83.5

What measured Emax goes with Cc1c(C(=O)NS(=O)(=O)N2CCCCC2)ccc2nc(N3C4CCC3CC(NCc3c(-c5c(Cl)cccc5Cl)noc3C3CC3)C4)sc12 (stereo not shown) ?
119

What measured Emax goes with O=C(NS(=O)(=O)c1nccs1)c1ccc2nc(N3C4CCC3CC(NCc3c(-c5c(Cl)cccc5Cl)noc3C3CC3)C4)sc2c1 (stereo not shown) ?
129

What measured Emax goes with COC(=O)c1cnc2nc(N3C4CCC3CC(NCc3c(-c5c(Cl)cccc5Cl)noc3C3CC3)C4)sc2n1 (stereo not shown) ?
51.5

###

Please go through the items and note down their EC50.
- study-target: human FXR (NR1H4) (Homo sapiens)
- Sequence (Q96RI1 1-486): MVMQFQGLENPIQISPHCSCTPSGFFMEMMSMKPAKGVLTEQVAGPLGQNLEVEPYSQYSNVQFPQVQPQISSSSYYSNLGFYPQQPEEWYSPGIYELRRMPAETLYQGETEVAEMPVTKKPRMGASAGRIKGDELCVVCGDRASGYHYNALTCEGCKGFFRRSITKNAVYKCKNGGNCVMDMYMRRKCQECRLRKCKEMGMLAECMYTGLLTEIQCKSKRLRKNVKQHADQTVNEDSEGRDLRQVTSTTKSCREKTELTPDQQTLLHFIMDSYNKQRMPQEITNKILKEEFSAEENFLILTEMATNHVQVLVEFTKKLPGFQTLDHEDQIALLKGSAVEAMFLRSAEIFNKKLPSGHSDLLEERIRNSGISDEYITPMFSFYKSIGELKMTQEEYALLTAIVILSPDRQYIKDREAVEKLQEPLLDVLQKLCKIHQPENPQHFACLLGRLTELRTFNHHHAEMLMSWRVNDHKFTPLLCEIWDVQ
- protocol-details: Human FXR (NR1H4) Assay: Gal4 promoter driven luciferase reporter transactivation in CHO cells (Indigo Bioscience kit IB00601)
- reported-conditions: Human FXR (NR1H4) reporter assay, potency ranges

What measured EC50 goes with CC(C)Oc1cc(C(=O)O)cc2sc(N3C4CCC3CC(NCc3c(-c5c(Cl)cccc5Cl)noc3C3CC3)C4)nc12 (stereo not drawn) ?
< 1 nM

What measured EC50 goes with COC(=O)c1cc(F)c2nc(N3C4CCC3CC(NCc3c(-c5ccccc5OC(F)(F)F)noc3C3CC3)C4)sc2c1 (stereo not drawn) ?
1 to 100 nM

What measured EC50 goes with CC1(S(=O)(=O)NC(=O)c2ccc3nc(N4C5CCC4CC(NCc4c(-c6ccccc6C(F)(F)F)noc4C4CC4)C5)oc3c2)CC1 (stereo not drawn) ?
100 to 1000 nM

What measured EC50 goes with COC(=O)c1cc(C2CC2)c2nc(N3C4CCC3CC(NCc3c(-c5ccccc5OC(F)(F)F)noc3C3CC3)C4)sc2c1 (stereo not drawn) ?
1 to 100 nM

What measured EC50 goes with O=C(NS(=O)(=O)C1CC1)c1ccc(N2C3CCC2CC(NCc2c(-c4c(Cl)cccc4Cl)noc2C2CC2)C3)nc1 (stereo not drawn) ?
1 to 100 nM

What measured EC50 goes with CC1(S(=O)(=O)NC(=O)c2ccc3nc(N4CCC(NCc5c(-c6ccccc6OC(F)(F)F)noc5C5CC5)CC4)sc3c2)CC1 ?
100 to 1000 nM

###

- study-target: human FXR (NR1H4) (Homo sapiens)
- Sequence (Q96RI1 1-486): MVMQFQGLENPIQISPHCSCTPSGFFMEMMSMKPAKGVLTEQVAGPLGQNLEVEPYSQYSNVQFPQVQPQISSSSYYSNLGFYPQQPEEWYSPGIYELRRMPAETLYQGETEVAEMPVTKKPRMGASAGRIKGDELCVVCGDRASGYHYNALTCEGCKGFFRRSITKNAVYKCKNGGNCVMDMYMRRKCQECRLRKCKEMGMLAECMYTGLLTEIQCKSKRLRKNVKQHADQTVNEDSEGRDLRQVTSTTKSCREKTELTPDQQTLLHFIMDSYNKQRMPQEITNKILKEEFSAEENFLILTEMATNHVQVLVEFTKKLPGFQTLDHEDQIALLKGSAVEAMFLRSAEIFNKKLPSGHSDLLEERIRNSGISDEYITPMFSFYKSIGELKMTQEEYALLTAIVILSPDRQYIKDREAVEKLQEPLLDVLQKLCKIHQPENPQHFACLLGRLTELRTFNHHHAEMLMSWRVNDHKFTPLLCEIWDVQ
- protocol-details: Human FXR (NR1H4) Assay: Gal4 promoter driven luciferase reporter transactivation in CHO cells (Indigo Bioscience kit IB00601)
- reported-conditions: Human FXR (NR1H4) reporter assay, potency ranges
result-type: EC50

What measured EC50 goes with CC1(S(=O)(=O)NC(=O)c2ccc3nc(N4C5CCC4CC(N(C=O)Cc4c(-c6c(Cl)cccc6Cl)noc4C4CC4)C5)sc3c2)CC1 (stereo not drawn) [Example 294] ?
> 1000 nM

What measured EC50 goes with COC(=O)c1cc(C2CC2)c2nc(N3C4CCC3CC(NCc3c(-c5c(Cl)cccc5Cl)noc3C3CC3)C4)sc2c1 (stereo not drawn) [Example 200-29] ?
1 to 100 nM

What measured EC50 goes with CC(C)Oc1cc(C(=O)NS(=O)(=O)C2(C)CC2)cc2sc(N3C4CCC3CC(NCc3c(-c5c(F)cccc5F)noc3C3CC3)C4)nc12 (stereo not drawn) [Example 1428] ?
1 to 100 nM
